Measured attribute: melting point

Consider the worked cases shown below.
Exam item: Return melting point (reported value) for this compound: COc1ccc2c(c1)C(=O)/C(=C/c1ccc(SCc3ccccc3)cc1)C2 [compound 9]
Marked response: 175 to 177 °C

Exam item: Return melting point (reported value) for this compound: O=C1/C(=C/c2ccc(SCc3ccccc3)cc2)Cc2ccc(Cl)cc21 [compound 17]
Marked response: 204 °C

Exam item: Return melting point (reported value) for this compound: COc1ccc2c(c1)C/C(=C\c1ccc(OCc3ccccc3)cc1)C2=O [compound 21]
Marked response: 141 to 142 °C

Next:
Exam item: Return melting point (reported value) for this compound: COc1cc2c(c(OC)c1)C(=O)/C(=C/c1ccc(SCc3ccccc3)cc1)C2 [compound 13]
Marked response: 176 to 178 °C

* * *

melting point: recorded values

Consider the worked cases shown below.
Exam item: Return melting point (reported value) for this compound: COc1cc2c(cc1OC)C(=O)/C(=C/c1ccc(OCc3ccccc3)cc1)C2 [compound 24]
Marked response: 207 to 208 °C

Exam item: Return melting point (reported value) for this compound: COc1ccc2c(c1)C/C(=C\c1ccc(SCc3ccccc3)cc1)C2=O [compound 8]
Marked response: 166 to 168 °C

Exam item: Return melting point (reported value) for this compound: O=C1/C(=C/c2ccc(SCc3ccccc3)cc2)Cc2cc3c(cc21)OCO3 [compound 14]
Marked response: 194 to 196 °C

Next:
Exam item: Return melting point (reported value) for this compound: O=C1/C(=C/c2ccc(OCc3ccccc3)cc2)Cc2cc(Cl)ccc21 [compound 28]
Marked response: 189 to 190 °C

Exam item: Return melting point (reported value) for this compound: O=C1/C(=C/c2ccc(OCc3ccccc3)cc2)Cc2ccc(Cl)cc21 [compound 29]
Marked response: 186 to 187 °C

* * *

Measured attribute: melting point

Exam item: Return melting point (reported value) for this molecule: O=C1/C(=C/c2ccc(SCc3ccccc3)cc2)CCc2ccccc21 [compound 32]
Marked response: 99 to 100 °C

Next:
Exam item: Return melting point (reported value) for this molecule: O=C1/C(=C/c2ccc(OCc3ccccc3)cc2)Cc2cc(F)cc(F)c21 [compound 31]
Marked response: 204 to 206 °C

Exam item: Return melting point (reported value) for this molecule: COc1ccc2c(c1OC)C/C(=C\c1ccc(OCc3ccccc3)cc1)C2=O [compound 23]
Marked response: 167 to 168 °C

Exam item: Return melting point (reported value) for this molecule: O=C1/C(=C/c2ccc(OCc3ccccc3)cc2)Cc2ccccc21 [compound 20]
Marked response: 170 °C

Exam item: Return melting point (reported value) for this molecule: Cc1cccc2c1C/C(=C\c1ccc(SCc3ccccc3)cc1)C2=O [compound 15]
Marked response: 167 to 169 °C

Exam item: Return melting point (reported value) for this molecule: O=C1/C(=C/c2ccc(SCc3ccccc3)cc2)Cc2cc(F)cc(F)c21 [compound 19]
Marked response: 170 to 172 °C

Exam item: Return melting point (reported value) for this molecule: Cc1cccc2c1C/C(=C\c1ccc(OCc3ccccc3)cc1)C2=O [compound 27]
Marked response: 127 to 129 °C

Exam item: Return melting point (reported value) for this molecule: COc1ccc2c(c1)C(=O)/C(=C/c1ccc(OCc3ccccc3)cc1)C2 [compound 22]
Marked response: 178 to 179 °C

Exam item: Return melting point (reported value) for this molecule: O=C1/C(=C/c2ccc(SCc3ccccc3)cc2)Cc2cc(Cl)ccc21 [compound 16]
Marked response: 140 to 142 °C
